assayed target: Histone acetyltransferase KAT2B (Homo sapiens) (UniProt Q92831)
Sequence (Q92831 whole entry, looked up): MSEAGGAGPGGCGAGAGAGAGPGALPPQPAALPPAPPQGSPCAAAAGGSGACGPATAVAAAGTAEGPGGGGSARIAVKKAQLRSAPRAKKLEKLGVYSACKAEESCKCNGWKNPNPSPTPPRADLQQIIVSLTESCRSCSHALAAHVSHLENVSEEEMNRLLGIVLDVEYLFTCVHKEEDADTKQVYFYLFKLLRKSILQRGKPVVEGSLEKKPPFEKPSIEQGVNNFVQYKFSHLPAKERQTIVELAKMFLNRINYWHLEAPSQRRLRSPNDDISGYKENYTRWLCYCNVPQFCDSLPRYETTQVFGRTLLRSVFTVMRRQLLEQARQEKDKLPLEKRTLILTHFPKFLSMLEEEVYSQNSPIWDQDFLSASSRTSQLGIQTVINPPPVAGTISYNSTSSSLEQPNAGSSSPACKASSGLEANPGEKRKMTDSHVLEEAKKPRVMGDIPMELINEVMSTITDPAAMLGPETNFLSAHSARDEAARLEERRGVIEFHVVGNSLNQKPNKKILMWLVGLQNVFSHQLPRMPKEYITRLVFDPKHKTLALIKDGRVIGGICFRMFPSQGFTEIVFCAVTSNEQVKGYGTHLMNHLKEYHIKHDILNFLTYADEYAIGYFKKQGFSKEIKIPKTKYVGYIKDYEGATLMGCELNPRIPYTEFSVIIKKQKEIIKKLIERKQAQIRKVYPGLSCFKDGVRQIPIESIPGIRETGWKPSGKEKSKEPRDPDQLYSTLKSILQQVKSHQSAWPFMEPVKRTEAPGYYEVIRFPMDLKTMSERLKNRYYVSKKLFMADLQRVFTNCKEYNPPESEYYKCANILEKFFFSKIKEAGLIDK
method summary: Binding affinity to human PCAF expressed in Escherichia coli BL21(DE3)-R3-pRARE2 assessed as change in melting temperature at 25 uM by SYPRO orange based protein stability shift assay
Note to self: class labels come from recorded ΔTm, ranges listed here: bottom bin (below 0.05 °C), middle bin (0.05 °C to below 0.9 °C), top bin (0.9 °C or more)

                                   compound                            assayed_target  discrete_label
0  Cc1noc(C)c1-c1cc(OCCCCC(=O)NO)cc(C(=O)c2ccccc2)c1  Histone acetyltransferase KAT2B (Homo sapiens) (UniProt Q92831)      bottom bin
1  Cc1noc(C)c1-c1cc(OCCCCCCC(=O)NO)cc(C(O)c2ccccc2)c1 (centres undefined)  Histone acetyltransferase KAT2B (Homo sapiens) (UniProt Q92831)      middle bin
2  Cc1noc(C)c1-c1cc(NC(=O)CCCCCCC(=O)NO)cc(C(=O)c2ccccc2)c1  Histone acetyltransferase KAT2B (Homo sapiens) (UniProt Q92831)         top bin
3  Cc1noc(C)c1-c1cc(OCCCCCCCC(=O)NO)cc(C(=O)c2ccccc2)c1  Histone acetyltransferase KAT2B (Homo sapiens) (UniProt Q92831)      bottom bin
4  Cc1noc(C)c1-c1cc(NC(=O)CCCCC(=O)NO)cc(C(=O)c2ccccc2)c1  Histone acetyltransferase KAT2B (Homo sapiens) (UniProt Q92831)      middle bin
5  Cc1noc(C)c1-c1cc(OCCCCCC(=O)NO)cc(C(=O)c2ccccc2)c1  Histone acetyltransferase KAT2B (Homo sapiens) (UniProt Q92831)      middle bin
6  Cc1noc(C)c1-c1cc(OCCCCCCC(=O)NO)cc(C(=O)c2ccccc2)c1  Histone acetyltransferase KAT2B (Homo sapiens) (UniProt Q92831)         top bin

The reported measurements were obtained from ChEMBL document CHEMBL3817837.
